This listing pairs compounds with measured pEC50.
molecular target: human recombinant mGluR5 (Homo sapiens, UniProt P41594); assay: positive modulation of mGluR5, calcium based FLIPR assay; conditions: HEK 293 cell line expressing human recombinant mGluR5; EC50 of the modulation from peak Ca fluorescence signal after glutamate at approx. 5% basal stimulation
Sequence (P41594 21-1212): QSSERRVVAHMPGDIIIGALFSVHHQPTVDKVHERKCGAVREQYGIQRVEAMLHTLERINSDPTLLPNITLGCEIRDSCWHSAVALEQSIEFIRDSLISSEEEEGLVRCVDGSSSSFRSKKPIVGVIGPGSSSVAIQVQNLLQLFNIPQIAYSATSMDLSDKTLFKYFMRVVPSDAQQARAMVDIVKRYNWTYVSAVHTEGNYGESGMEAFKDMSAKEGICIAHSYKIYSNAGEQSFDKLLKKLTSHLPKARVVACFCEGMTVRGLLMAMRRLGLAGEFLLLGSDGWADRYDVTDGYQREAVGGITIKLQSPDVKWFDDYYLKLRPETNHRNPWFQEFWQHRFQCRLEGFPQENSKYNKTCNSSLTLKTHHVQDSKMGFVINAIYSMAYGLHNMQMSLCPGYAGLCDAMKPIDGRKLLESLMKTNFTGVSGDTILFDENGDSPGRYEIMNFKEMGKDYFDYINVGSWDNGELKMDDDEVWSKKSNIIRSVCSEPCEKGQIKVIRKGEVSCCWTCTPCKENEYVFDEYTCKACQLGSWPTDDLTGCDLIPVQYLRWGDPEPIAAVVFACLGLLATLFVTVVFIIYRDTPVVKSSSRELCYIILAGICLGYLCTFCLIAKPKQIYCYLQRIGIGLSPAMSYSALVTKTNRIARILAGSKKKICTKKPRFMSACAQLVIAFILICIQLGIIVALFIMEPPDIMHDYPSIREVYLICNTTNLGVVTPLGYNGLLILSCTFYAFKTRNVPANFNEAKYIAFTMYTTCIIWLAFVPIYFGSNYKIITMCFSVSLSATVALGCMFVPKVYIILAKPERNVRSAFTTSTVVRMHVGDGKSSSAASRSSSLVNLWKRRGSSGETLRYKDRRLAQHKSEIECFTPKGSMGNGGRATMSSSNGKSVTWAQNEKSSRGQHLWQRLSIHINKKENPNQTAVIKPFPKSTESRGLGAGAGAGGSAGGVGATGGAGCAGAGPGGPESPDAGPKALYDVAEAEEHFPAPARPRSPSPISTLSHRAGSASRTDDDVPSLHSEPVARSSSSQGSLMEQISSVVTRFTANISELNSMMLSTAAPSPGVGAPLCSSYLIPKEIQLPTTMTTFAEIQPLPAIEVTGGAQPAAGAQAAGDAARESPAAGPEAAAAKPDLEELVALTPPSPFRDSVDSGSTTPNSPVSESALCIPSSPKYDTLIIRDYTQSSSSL
pEC50: −log10 of the molar value.

{"Smiles representation": "CCc1cc(-c2ccc(F)c(C)c2)nn1CC(=O)N1CCN(c2cccc(OC)c2)C(=O)C1", "pEC50": 7.24}
{"Smiles representation": "COCCCc1cc(-c2ccc(F)c(C)c2)nn1CC(=O)N1Cc2nc(C)sc2C1", "pEC50": 6.62}
{"Smiles representation": "O=C(Cn1nc(-c2ccccc2)cc1-c1ccccc1)N1CCN(Cc2ccccc2)C(=O)C1", "pEC50": 5.76}
{"Smiles representation": "CCc1cc(-c2cccc(Cl)c2)nn1CC(=O)N1CC=C(c2ncc(C)o2)CC1", "pEC50": 7.41}
{"Smiles representation": "Cc1cc(-c2cc(CC(C)C)n(CC(=O)N3CCc4nc(N)sc4CC3)n2)ccc1F", "pEC50": 7.68}
{"Smiles representation": "CNc1nc2c(s1)CCN(C(=O)Cn1nc(-c3ccc(F)c(C)c3)cc1C1CC1)CC2", "pEC50": 6.71}
{"Smiles representation": "CCc1cc(-c2cccc(C#N)c2)nn1CC(=O)N1CC=C(c2ncc(C)o2)CC1", "pEC50": 7.19}
{"Smiles representation": "Cc1coc(N2CCN(C(=O)Cn3nc(-c4ccc(F)c(C)c4)cc3C)CC2)n1", "pEC50": 6.22}

* * *

biological target: human recombinant mGluR5 (Homo sapiens, UniProt P41594); assay: positive modulation of mGluR5, calcium based FLIPR assay; settings: HEK 293 cell line expressing human recombinant mGluR5; EC50 of the modulation from peak Ca fluorescence signal after glutamate at approx. 5% basal stimulation
pEC50: −log10 of the molar value.

{"Compound": "CCc1cc(-c2cccc(Cl)c2)nn1CC(=O)N1CCC(c2nnc(C)o2)CC1 [Example 7.02.113]", "pEC50": 6.20}
{"Compound": "COc1cccc(-c2cc(C3CCCCC3)n(CC(=O)N3CCc4nc(N)sc4CC3)n2)c1 [Example 7.02.052]", "pEC50": 6.53}
{"Compound": "CCc1cc(-c2ccc(F)c(C)c2)nn1CC(=O)N1CCc2nc(NC(C)=O)sc2CC1 [Example 7.01.069]", "pEC50": 6.42}
{"Compound": "CCc1cc(-c2cc(C)c(F)c(C)c2)nn1CC(=O)N1Cc2nc(C)sc2C1 [Example 7.02.181]", "pEC50": 6.40}

* * *

biological target: human recombinant mGluR5 (Homo sapiens, UniProt P41594); construct: expressed in transfected cells; host or cells: HEK 293; experiment: positive modulation of mGluR5, calcium based FLIPR assay; conditions: HEK 293 cell line expressing human recombinant mGluR5; EC50 of the modulation from peak Ca fluorescence signal after glutamate at approx. 5% basal stimulation

{"Smiles representation": "Cc1cc(-c2cc(-c3ccccc3)n(CC(=O)N3Cc4cccnc4C3)n2)ccc1F", "EC50 / nM": 31}
{"Smiles representation": "CCc1cc(-c2cccc(Cl)c2)nn1CC(=O)N1CCC(c2ncc(C)o2)CC1", "EC50 / nM": 127}
{"Smiles representation": "CCc1cc(-c2ccc(F)c(C)c2)nn1CC(=O)N1CCc2ccsc2CC1", "EC50 / nM": 233}
{"Smiles representation": "COCc1nnc(C2CCN(C(=O)Cn3nc(-c4ccc(F)c(C)c4)cc3-c3ccccc3)CC2)o1", "EC50 / nM": 35}

* * *

molecular target: human recombinant mGluR5 (Homo sapiens, UniProt P41594); experiment: positive modulation of mGluR5, calcium based FLIPR assay; conditions: HEK 293 cell line expressing human recombinant mGluR5; EC50 of the modulation from peak Ca fluorescence signal after glutamate at approx. 5% basal stimulation
pEC50: −log10 of the molar value.
Classification field: rule met = pEC50 at or over 7; rule not met = pEC50 under 7.

{"Molecule": "Cc1nc2n(n1)CCN(C(=O)Cn1nc(-c3ccc(F)c(C)c3)cc1-c1ccccc1)CC2 [Example 7.02.231]", "Target": "human recombinant mGluR5 (Homo sapiens, UniProt P41594)", "Qualitative label": "rule met"}
{"Molecule": "Cc1nc2c(s1)CCN(C(=O)Cn1nc(-c3ccc(OC(F)F)cc3)cc1-c1ccccc1)CC2 [Example 7.02.221]", "Target": "human recombinant mGluR5 (Homo sapiens, UniProt P41594)", "Qualitative label": "rule met"}
{"Molecule": "Cc1nc2c(s1)CCN(C(=O)Cn1nc(-c3cc(C)c(F)cn3)cc1-c1ccccc1)CC2 [Example 7.02.175]", "Target": "human recombinant mGluR5 (Homo sapiens, UniProt P41594)", "Qualitative label": "rule met"}
{"Molecule": "Cc1nc2c(o1)CN(C(=O)Cn1nc(-c3ccccc3)cc1-c1ccccc1)CC2 [Example 7.01.002]", "Target": "human recombinant mGluR5 (Homo sapiens, UniProt P41594)", "Qualitative label": "rule not met"}
{"Molecule": "O=C(Cn1nc(-c2ccccc2)cc1-c1ccccc1)N1CCc2c(F)cccc2C1 [Example 7.01.009]", "Target": "human recombinant mGluR5 (Homo sapiens, UniProt P41594)", "Qualitative label": "rule not met"}
{"Molecule": "Cc1nc2c(o1)CCN(C(=O)Cn1nc(-c3ccc(F)c(C)c3)cc1-c1ccccc1)CC2 [Example 7.02.106]", "Target": "human recombinant mGluR5 (Homo sapiens, UniProt P41594)", "Qualitative label": "rule met"}
{"Molecule": "COc1ccc(-c2cc(C(C)C)n(CC(=O)N3CCc4nc(C)sc4CC3)n2)cc1C [Example 7.02.047]", "Target": "human recombinant mGluR5 (Homo sapiens, UniProt P41594)", "Qualitative label": "rule not met"}
{"Molecule": "Cc1nc2c(s1)CCN(C(=O)Cn1nc(-c3ccc(C)c(F)c3)cc1-c1ccccc1)CC2 [Example 7.02.251]", "Target": "human recombinant mGluR5 (Homo sapiens, UniProt P41594)", "Qualitative label": "rule met"}

* * *

molecular target: human recombinant mGluR5 (Homo sapiens); assay: positive modulation of mGluR5, calcium based FLIPR assay; conditions: HEK 293 cell line expressing human recombinant mGluR5; EC50 of the modulation from peak Ca fluorescence signal after glutamate at approx. 5% basal stimulation
pEC50: −log10 of the molar value.
Listed here: items and their measured pEC50.

{"Smiles representation": "CCCc1cc(-c2ccc(F)c(C)c2)nn1CC(=O)N1Cc2nc(C)sc2C1", "pEC50": 7.38}
{"Smiles representation": "Cc1cc(-c2cc(-c3ccccc3)n(CC(=O)N3CCc4ccccc4CC3)n2)ccc1F", "pEC50": 6.62}
{"Smiles representation": "O=C(Cn1nc(-c2ccccc2)cc1-c1ccccc1)N1CCc2c(Cl)cccc2C1", "pEC50": 6.12}
{"Smiles representation": "Nc1nnc(C2CCN(C(=O)Cn3nc(-c4ccccc4)cc3-c3ccccc3)CC2)o1", "pEC50": 5.82}
{"Smiles representation": "Cc1cc(-c2cc(-c3ccccc3)n(CC(=O)N3CCc4cc(=O)n(C)nc4CC3)n2)ccc1F", "pEC50": 7.52}
{"Smiles representation": "O=C(Cn1nc(-c2ccccc2)cc1-c1ccccc1)N1CCC(c2noc3ccccc23)CC1", "pEC50": 6.22}
{"Smiles representation": "Cc1nc2c(s1)CN(C(=O)Cn1nc(-c3ccc(F)cc3)cc1-c1ccc(F)cc1)C2", "pEC50": 7.43}
{"Smiles representation": "Nc1nc2c(s1)CCN(C(=O)Cn1nc(-c3ccc(F)cn3)cc1-c1ccc(F)cc1)CC2", "pEC50": 6.12}
